Form field: log10(Kd) (one value per entry).
assay: Binding affinity to Influenza A Weybridge(H7N7) virus Matrix protein 2 by spectrophotometry
Heads up, the numbers here are log10 of Kd in nM units.

* NC1CCCCCC1 [Cycloheptanamine] | 4.21
* C1CNC(C23CC4CC(CC(C4)C2)C3)C1 (centres undefined) | 2.71
* NC1CCCCCCC1 [Cyclooctanamine] | 3.26
* C1CNC2(C1)C1CC3CC(C1)CC2C3 (centres undefined) | 3.06
* C1CCC2(NC1)C1CC3CC(C1)CC2C3 (centres undefined) | 2.59
* CC1(N)C2CC3CC(C2)CC1C3 (centres undefined) | 3.56
* C1CCC(C23CC4CC(CC(C4)C2)C3)NC1 (centres undefined) | 3.18
* NC1C2CC3CC(C2)CC1C3 (centres undefined) [2-Adamantanamine] | 3.37

Turning now to a further record.
Looking up CC1CCC2(N1)C1CC3CC(C1)CC2C3 (centres undefined) , I found its log10(Kd) recorded as 3.18
